Assayed Target: UniProt Q9UBN7
Sequence (Q9UBN7 whole entry, the tested form may be a part): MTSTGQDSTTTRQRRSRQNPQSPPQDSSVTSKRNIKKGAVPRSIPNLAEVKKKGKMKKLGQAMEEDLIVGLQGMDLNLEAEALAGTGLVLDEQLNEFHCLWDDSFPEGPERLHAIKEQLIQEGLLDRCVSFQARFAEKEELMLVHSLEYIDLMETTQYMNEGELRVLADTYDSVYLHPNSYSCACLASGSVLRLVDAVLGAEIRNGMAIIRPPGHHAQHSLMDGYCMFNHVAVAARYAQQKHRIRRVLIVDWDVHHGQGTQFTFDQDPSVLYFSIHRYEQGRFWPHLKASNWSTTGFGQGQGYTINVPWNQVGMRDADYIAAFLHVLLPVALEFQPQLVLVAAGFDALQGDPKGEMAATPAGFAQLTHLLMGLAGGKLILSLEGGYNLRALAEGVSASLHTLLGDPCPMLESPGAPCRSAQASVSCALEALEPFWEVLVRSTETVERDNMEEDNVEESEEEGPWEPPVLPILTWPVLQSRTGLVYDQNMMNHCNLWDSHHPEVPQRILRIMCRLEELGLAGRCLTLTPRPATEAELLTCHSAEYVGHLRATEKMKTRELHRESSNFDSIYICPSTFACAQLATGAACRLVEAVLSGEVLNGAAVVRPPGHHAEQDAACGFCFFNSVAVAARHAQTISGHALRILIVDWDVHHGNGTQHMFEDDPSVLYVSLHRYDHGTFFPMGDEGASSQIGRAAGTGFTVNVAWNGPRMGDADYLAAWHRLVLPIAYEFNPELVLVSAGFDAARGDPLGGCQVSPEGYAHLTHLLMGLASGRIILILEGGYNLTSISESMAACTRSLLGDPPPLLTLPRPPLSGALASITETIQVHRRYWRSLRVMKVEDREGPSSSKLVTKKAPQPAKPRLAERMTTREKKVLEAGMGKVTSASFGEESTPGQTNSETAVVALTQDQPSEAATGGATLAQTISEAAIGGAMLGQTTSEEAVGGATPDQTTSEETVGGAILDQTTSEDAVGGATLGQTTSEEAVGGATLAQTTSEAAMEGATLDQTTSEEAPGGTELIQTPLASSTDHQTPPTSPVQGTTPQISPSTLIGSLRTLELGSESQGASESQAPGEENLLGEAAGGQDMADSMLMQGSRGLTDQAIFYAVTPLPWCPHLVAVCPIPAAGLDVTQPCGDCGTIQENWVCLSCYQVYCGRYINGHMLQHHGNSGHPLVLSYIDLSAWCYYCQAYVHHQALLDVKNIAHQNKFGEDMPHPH
Test Description: Inhibition of full length recombinant human GST fused His6-tagged HDAC6 expressed in baculovirus infected High5 cells using Boc-Lys(epsilon-acetyl)-AMC as substrate measured after 3 hrs
Attribute Measured: IC50 (nM)

Example compounds with recorded IC50:
Lookup result for N#Cc1cccc(Nc2ncnc3cc(NC(=O)CCCCCCC(=O)NO)sc23)c1 ; measured IC50: 20.1

Lookup result for Cc1ccccc1Nc1ncnc2cc(NC(=O)CCCCCC(=O)NO)sc12 ; measured IC50: 87.6

Lookup result for O=C(CCCCCCC(=O)Nc1cc2ncnc(Nc3cccc(Br)c3)c2s1)NO ; measured IC50: 16.9

Lookup result for O=C(CCCCCCC(=O)Nc1cc2ncnc(Nc3cccc(F)c3)c2s1)NO ; measured IC50: 42.5

Lookup result for CCc1cccc(Nc2ncnc3cc(NC(=O)CCCCCCC(=O)NO)sc23)c1 ; measured IC50: 58.5

Lookup result for O=C(CCCCCCC(=O)Nc1cc2ncnc(Nc3cccc(Cl)c3)c2s1)NO ; measured IC50: 33.8

I: COc1cccc(Nc2ncnc3cc(NC(=O)CCCCCCC(=O)NO)sc23)c1
II: COc1ccc(Nc2ncnc3cc(NC(=O)CCCCCCC(=O)NO)sc23)c(C)c1
For the two items I and II , which reports the higher IC50 value? # reply format: chosen label
II
(II: 111 nM, I: 20.9 nM)

Attribution: ChEMBL document CHEMBL4004853
